All values here come from PubChem BioAssay (NCI).

# System: OVCAR-8 ovarian
# ASSAY EXPLANATION: NCI-60 one-dose screen, 48 h (100 = growth as untreated, 0 = no growth, -100 = all killed)
# CONDITIONS: 10 µM
Compounds without any hit were thinned out: in the full panel of roughly 83,000, 20% have a hit.
In this section we review reported growth values for a set of compounds.
Entry rule: numbers only, all in %.

- COMPOUND: "CC(=O)OCC1CCCO1 (stereo not drawn)"
  UOM: "%"
  growth: 110
- COMPOUND: "c1c(-c2cc(C3CC3)[nH]n2)n[nH]c1C1CC1"
  UOM: "%"
  growth: 102
- COMPOUND: "CCOc1ccc(/C=C/C(=O)c2ccccc2)cc1"
  UOM: "%"
  growth: 95.6

State its growth: COc1ccccc1N1CCN(C(=S)Nc2ccccc2)CC1
97.6

Identify measured growth associated with NC(=O)NC(=O)c1ccc(Cl)cc1
106

====

# System: UACC-257 melanoma
# ASSAY EXPLANATION: NCI-60 one-dose screen, 48 h (100 = growth as untreated, 0 = no growth, -100 = all killed)
# CONDITIONS: 10 µM
# Procedure: Cells are grown in 96 well plates and exposed to the test compound for 48 hours. Compounds are tested at a single concentration, which is 10^-5 M for most compounds. The reported endpoint is percent growth (GI% or GIPRCNT), where numbers from 0 - 100% represent growth inhibition, and numbers from -100% - 0 represent cell death. For example, a value of 40 represents 60% growth inhibition. A value of 0 means no net growth occurred over the course of the experiment. […]
About 83,000 compounds went through this panel and 20% of them were active in at least one assay; those are over-represented in the sample as a whole.
Decide using growth alone. Strictly below 90%: 1 (yes). Equal to or above 90%: 0 (no).

Look over these answered cases.
- MOLECULE: "Nc1nc(N)c(N=Nc2ccc(C(=O)O)cc2)c(N)n1"
  SYSTEM: "UACC-257 melanoma"
  CATEGORY: "1 (yes)"
- MOLECULE: "C/C(O)=C(\\C=N\\C(N)=S)C(=O)Nc1ccccc1"
  SYSTEM: "UACC-257 melanoma"
  CATEGORY: "0 (no)"
- MOLECULE: "COCCOC(=O)c1ccc(C(C)C)cc1"
  SYSTEM: "UACC-257 melanoma"
  CATEGORY: "1 (yes)"
- MOLECULE: "CC(C)(O)C#CC#CC(C)(C)O"
  SYSTEM: "UACC-257 melanoma"
  CATEGORY: "0 (no)"

Given the entry CC(=O)c1ccc(N=C(C#N)C2=C(O)c3ccccc3C2=O)cc1 , would its reported growth be below 90%?
0 (no)

Does c1ccc(CN2COc3c(ccc4c3OCN(Cc3ccccc3)C4)C2)cc1 have growth strictly under 90%?
1 (yes)

# check: growth < 90% for CC(=O)c1ccc(C(C)(C)C)cc1
0 (no)

Would you kindly verify if growth of COc1cc(CN)ccc1O is strictly less than 90%?
0 (no)

Strictly below 90%: is that where growth of CC1CCCCN1C(=S)Nc1ccc(S(=O)(=O)N2CCCCC2)cc1 (stereo unspecified) sits?
0 (no)

Below 90% on growth? Entry O=C(O)[C@@H]1[C@H]2C[C@H]3c4[nH]c5ccccc5c4CCN3C[C@@H]2CC[C@@H]1O
0 (no)
